Overview of recorded viability, T/C for various compounds
# Tested on: 945468-187-T-J3-PDC spheroids with HUVEC/MSC, viability
# run_description: Anticancer human tumor 945468-187-T-J3-PDC patient-derived rectal carcinoma cell line growth inhibition [PI3K]
# run_conditions: second compound 3.16 µM; first compound 3.16 µM; hits give low values
Form entry: value (%) — number only.

CC(Cn1ccc(-c2ccc(C#N)c(Cl)c2)n1)NC(=O)c1cc(C(C)O)[nH]n1 (stereo not drawn) + Cc1nc(NC(=O)N2CCCC2C(N)=O)sc1-c1ccnc(C(C)(C)C(F)(F)F)c1    101

Entry CC(C)NCC(C(=O)N1CCN(c2ncnc3c2C(C)CC3O)CC1)c1ccc(Cl)cc1 (stereo not drawn) + CC(Nc1ncnc2nc[nH]c12)c1cc2cccc(Cl)c2c(=O)n1-c1ccccc1 : viability, T/C on 945468-187-T-J3-PDC spheroids with HUVEC/MSC, viability = 46.5

# lookup: Cn1nccc1Nc1nccc(-c2ccn(C(CO)c3ccc(Cl)c(F)c3)c(=O)c2)n1 (stereo not drawn) + Cc1nc(NC(=O)N2CCCC2C(N)=O)sc1-c1ccnc(C(C)(C)C(F)(F)F)c1 on 945468-187-T-J3-PDC spheroids with HUVEC/MSC, viability, viability, T/C = 91.2

###

# Tested on: 945468-187-T-J3-PDC spheroids with HUVEC/MSC, viability
# run_description: Anticancer human tumor 945468-187-T-J3-PDC cell line growth inhibition [PI3K]
# run_conditions: second compound 0.1 µM; first compound 0.316 µM; hits give low values
Below: a set of entries, each annotated with reported viability, T/C.
Numbers only here, please. The scale is %.

Past entries and their recorded results:
CC1(C)CCC(CN2CCN(c3ccc(C(=O)NS(=O)(=O)c4ccc(NCC5CCOCC5)c([N+](=O)[O-])c4)c(Oc4cnc5[nH]ccc5c4)c3)CC2)=C(c2ccc(Cl)cc2)C1 + CC(Nc1ncnc2nc[nH]c12)c1cc2cccc(Cl)c2c(=O)n1-c1ccccc1    98.7
CC1(C)CCC(CN2CCN(c3ccc(C(=O)NS(=O)(=O)c4ccc(NCC5CCOCC5)c([N+](=O)[O-])c4)c(Oc4cnc5[nH]ccc5c4)c3)CC2)=C(c2ccc(Cl)cc2)C1 + Cc1nc(NC(=O)N2CCCC2C(N)=O)sc1-c1ccnc(C(C)(C)C(F)(F)F)c1    101
C=CC(=O)N1CCN(c2nc(=O)n(-c3c(C)ccnc3C(C)C)c3nc(-c4c(O)cccc4F)c(F)cc23)C(C)C1 (centres undefined) + Cc1nc(NC(=O)N2CCCC2C(N)=O)sc1-c1ccnc(C(C)(C)C(F)(F)F)c1    103

// next entry
Entry CCN1CCN(Cc2ccc(Nc3ncc(F)c(-c4cc(F)c5nc(C)n(C(C)C)c5c4)n3)nc2)CC1 + Cc1nc(NC(=O)N2CCCC2C(N)=O)sc1-c1ccnc(C(C)(C)C(F)(F)F)c1 , viability, T/C reported as 121

###

# Tested on: 945468-187-T-J3-PDC spheroids with HUVEC/MSC, viability
# run_description: Anticancer human tumor 945468-187-T-J3-PDC cell line growth inhibition [PI3K];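 also: spheroids exposed to agents for 7 days before viability read; 100% = DMSO vehicle control viability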
# run_conditions: second compound 0.316 µM; first compound 0.1 µM; hits give low values
In this section we review reported viability, T/C values for a set of compounds.
Kindly provide the numeric value in % only, without the unit symbol.

The cases that follow already have their viability, T/C on record.
CC(C)NCC(C(=O)N1CCN(c2ncnc3c2C(C)CC3O)CC1)c1ccc(Cl)cc1 (stereo not drawn) + COc1c(OCCCN2CCOCC2)ccc2c3n(c(=NC(=O)c4cnc(N)nc4)nc12)CCN3    19.3
Cn1ncnc1[C@H]1c2n[nH]c(=O)c3cc(F)cc(c23)N[C@@H]1c1ccc(F)cc1 + Cc1nc(NC(=O)N2CCCC2C(N)=O)sc1-c1ccnc(C(C)(C)C(F)(F)F)c1    105

// next item, viability, T/C requested
The recorded viability, T/C for CC1(C)CCC(CN2CCN(c3ccc(C(=O)NS(=O)(=O)c4ccc(NCC5CCOCC5)c([N+](=O)[O-])c4)c(Oc4cnc5[nH]ccc5c4)c3)CC2)=C(c2ccc(Cl)cc2)C1 + Cc1nc(NC(=O)N2CCCC2C(N)=O)sc1-c1ccnc(C(C)(C)C(F)(F)F)c1 is 112

###

Entries and their viability, T/C values follow.
# Test system: 945468-187-T-J3-PDC spheroids with HUVEC/MSC, viability
# run_description: Anticancer human tumor 945468-187-T-J3-PDC cell line growth inhibition [PI3K];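 also: spheroids exposed to agents for 7 days before viability read; 100% = DMSO vehicle control viability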
# run_conditions: second compound 0.1 µM; first compound 0.000316 µM; hits give low values

Past entries and their recorded results:
CC(C)n1nc(-c2ccc3oc(N)nc3c2)c2c(N)ncnc21 + CC(Nc1ccc2c(c1)OCCn1cc(N3C(=O)OCC3C(F)F)nc1-2)C(N)=O    102%
CC(C)n1nc(-c2ccc3oc(N)nc3c2)c2c(N)ncnc21 + CC(Nc1ncnc2nc[nH]c12)c1cc2cccc(Cl)c2c(=O)n1-c1ccccc1    122%
CC(=O)c1c(C)c2cnc(Nc3ccc(N4CCNCC4)cn3)nc2n(C2CCCC2)c1=O + CC(Nc1ccc2c(c1)OCCn1cc(N3C(=O)OCC3C(F)F)nc1-2)C(N)=O    110%
CC(C)n1nc(-c2ccc3oc(N)nc3c2)c2c(N)ncnc21 + Cc1nc(NC(=O)N2CCCC2C(N)=O)sc1-c1ccnc(C(C)(C)C(F)(F)F)c1    109%
CC(C)n1nc(-c2ccc3oc(N)nc3c2)c2c(N)ncnc21 + COc1c(OCCCN2CCOCC2)ccc2c3n(c(=NC(=O)c4cnc(N)nc4)nc12)CCN3    46%

Observed viability, T/C on 945468-187-T-J3-PDC spheroids with HUVEC/MSC, viability, entry CC(=O)c1c(C)c2cnc(Nc3ccc(N4CCNCC4)cn3)nc2n(C2CCCC2)c1=O + CC(Nc1ncnc2nc[nH]c12)c1cc2cccc(Cl)c2c(=O)n1-c1ccccc1 , equals 91.4%

###

# Tested on: 945468-187-T-J3-PDC spheroids with HUVEC/MSC, viability
# run_description: Anticancer human tumor 945468-187-T-J3-PDC cell line growth inhibition [PI3K];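 also: spheroids exposed to agents for 7 days before viability read; 100% = DMSO vehicle control viability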
# run_conditions: second compound 0.1 µM; first compound 0.000316 µM; hits give low values
assay_readout: viability, T/C (%)
# unit: % | format: bare number

Cn1ncnc1[C@H]1c2n[nH]c(=O)c3cc(F)cc(c23)N[C@@H]1c1ccc(F)cc1 + COc1c(OCCCN2CCOCC2)ccc2c3n(c(=NC(=O)c4cnc(N)nc4)nc12)CCN3    46.5

get_value(item= Cn1ncnc1[C@H]1c2n[nH]c(=O)c3cc(F)cc(c23)N[C@@H]1c1ccc(F)cc1 + Cc1nc(NC(=O)N2CCCC2C(N)=O)sc1-c1ccnc(C(C)(C)C(F)(F)F)c1 , readout=viability, T/C) returns 105

viability, T/C for Cn1ncnc1[C@H]1c2n[nH]c(=O)c3cc(F)cc(c23)N[C@@H]1c1ccc(F)cc1 + CC(Nc1ncnc2nc[nH]c12)c1cc2cccc(Cl)c2c(=O)n1-c1ccccc1 is 94.2

viability, T/C reading for CC(=O)c1c(C)c2cnc(Nc3ccc(N4CCNCC4)cn3)nc2n(C2CCCC2)c1=O + Cc1nc(NC(=O)N2CCCC2C(N)=O)sc1-c1ccnc(C(C)(C)C(F)(F)F)c1 : 91.5

// viability, T/C value for CC(=O)c1c(C)c2cnc(Nc3ccc(N4CCNCC4)cn3)nc2n(C2CCCC2)c1=O + COc1c(OCCCN2CCOCC2)ccc2c3n(c(=NC(=O)c4cnc(N)nc4)nc12)CCN3 : 43.1

###

# Test system: 945468-187-T-J3-PDC spheroids with HUVEC/MSC, viability
# run_description: Anticancer human tumor 945468-187-T-J3-PDC cell line growth inhibition [PI3K];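 also: spheroids exposed to agents for 7 days before viability read; 100% = DMSO vehicle control viability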
# run_conditions: second compound 0.01 µM; first compound 0.1 µM; hits give low values
assay_readout: viability, T/C (%)
Report the figure in % without appending any unit label.

CC1(C)CCC(CN2CCN(c3ccc(C(=O)NS(=O)(=O)c4ccc(NCC5CCOCC5)c([N+](=O)[O-])c4)c(Oc4cnc5[nH]ccc5c4)c3)CC2)=C(c2ccc(Cl)cc2)C1 + CC(Nc1ccc2c(c1)OCCn1cc(N3C(=O)OCC3C(F)F)nc1-2)C(N)=O    125
CCCS(=O)(=O)Nc1ccc(F)c(C(=O)c2c[nH]c3ncc(-c4ccc(Cl)cc4)cc23)c1F + COc1c(OCCCN2CCOCC2)ccc2c3n(c(=NC(=O)c4cnc(N)nc4)nc12)CCN3    77.3

Turning now to a further molecule:
Result for C[C@@H](NC(=O)c1ncnc(N)c1Cl)c1ncc(C(=O)Nc2cc(C(F)(F)F)c(Cl)cn2)s1 + COc1c(OCCCN2CCOCC2)ccc2c3n(c(=NC(=O)c4cnc(N)nc4)nc12)CCN3 , tested on 945468-187-T-J3-PDC spheroids with HUVEC/MSC, viability, viability, T/C: 91.7

These measurements were taken from PubChem BioAssay AID1963968.
